Data origin, for the record: patent US9061984B2

# Test system: H460 cells
# EXPERIMENT DESCRIPTION: Cell growth inhibition bioassay (sulforhodamine B)
# Format: cell-based, human
# MEASUREMENT CONDITIONS: Homo sapiens, NCI-H460; 48 h, SRB; read-out: GI50 in indicated cell line: H460
GI50 values, listed per item
READOUT: GI50 (µM)

C=CCOc1cc(OC)c(C(=O)/C=C/c2ccc(OC)cc2)c(OCC=C)c1 :: 20
COc1cc(O)cc(O)c1C(=O)/C=C/c1ccc2c(c1)OCO2 :: 15.6

====

Attribute: pIC50
# System: axenic amastigotes of L. amazonensis (strain MHOM/BR/76/LTB-012)
# MEASUREMENT CONDITIONS: read-out: L. amazonensis IC50; Table 8b
pIC50: −log10 of the molar value.
READOUT: pIC50

Cc1ccc(C=NNc2ncnc3sc4c(c23)CCCC4)cc1 [II-05] :: 4.86
NNc1ncnc2sc3c(c12)CCCC3 [PC] :: 4.92
CC(C)=NNc1ncnc2sc3c(c12)CCCC3 [II-44] :: 4.97
N#Cc1ccc(C=NNc2ncnc3sc4c(c23)CCCC4)cc1 [II-32] :: 4.97
